Numbers sourced from the NIST ThermoML archive (doi:10.1016/j.jct.2017.12.012).

- Experiment: activity coefficient (dimensionless); of the first substance listed, at infinite dilution; xn = mol fraction of the nth substance listed
- Test settings: 313.15 K; 101.33 kPa; Liquid; Chromatography; x1 = 0
Could you label it Satisfied if measured activity coefficient is 2 or higher, and Not satisfied otherwise?

compound="ClC(Cl)(Cl)Cl [tetrachloromethane] + CCCCCCCCn1cc[n+](C)c1C.O=S(=O)([N-]S(=O)(=O)C(F)(F)F)C(F)(F)F" group_label="Not satisfied"
compound="CCCCC [pentane] + CCCCCCCCn1cc[n+](C)c1C.O=S(=O)([N-]S(=O)(=O)C(F)(F)F)C(F)(F)F" group_label=Satisfied
compound="C=CCCCC [hex-1-ene] + CCCCCCCCn1cc[n+](C)c1C.O=S(=O)([N-]S(=O)(=O)C(F)(F)F)C(F)(F)F" group_label=Satisfied
compound="CCO [ethanol] + CCCCCCCCn1cc[n+](C)c1C.O=S(=O)([N-]S(=O)(=O)C(F)(F)F)C(F)(F)F" group_label="Not satisfied"

Turning now to a further record.
Task: Would you say C1=CCCCC1 [cyclohexene] + CCCCCCCCn1cc[n+](C)c1C.O=S(=O)([N-]S(=O)(=O)C(F)(F)F)C(F)(F)F shows activity coefficient at minimum 2?
Result: Satisfied

---

- Experiment: activity coefficient (dimensionless); of the first substance listed, at infinite dilution; xn = mol fraction of the nth substance listed
- Test settings: 353.15 K; 101.33 kPa; Liquid; Chromatography; x1 = 0
Measure name: activity coefficient
Give only the figure.

molecule="Cc1ccccc1C [1,2-dimethylbenzene] + CCCCCCCCn1cc[n+](C)c1C.O=S(=O)([N-]S(=O)(=O)C(F)(F)F)C(F)(F)F" measured=0.93
molecule="ClC(Cl)Cl [trichloromethane] + CCCCCCCCn1cc[n+](C)c1C.O=S(=O)([N-]S(=O)(=O)C(F)(F)F)C(F)(F)F" measured=0.54

Task: Could you please provide reported activity coefficient for C1CCOC1 [tetrahydrofuran] + CCCCCCCCn1cc[n+](C)c1C.O=S(=O)([N-]S(=O)(=O)C(F)(F)F)C(F)(F)F ? Thanks!
Result: 0.37

Task: Could you please provide reported activity coefficient for Cc1ccccc1 [toluene] + CCCCCCCCn1cc[n+](C)c1C.O=S(=O)([N-]S(=O)(=O)C(F)(F)F)C(F)(F)F ? Thanks!
Result: 0.78

Task: Could you please provide reported activity coefficient for CCCCCCCCC [nonane] + CCCCCCCCn1cc[n+](C)c1C.O=S(=O)([N-]S(=O)(=O)C(F)(F)F)C(F)(F)F ? Thanks!
Result: 8.04

Task: Could you please provide reported activity coefficient for CCO [ethanol] + CCCCCCCCn1cc[n+](C)c1C.O=S(=O)([N-]S(=O)(=O)C(F)(F)F)C(F)(F)F ? Thanks!
Result: 1.01

Task: Could you please provide reported activity coefficient for ClCCl [dichloromethane] + CCCCCCCCn1cc[n+](C)c1C.O=S(=O)([N-]S(=O)(=O)C(F)(F)F)C(F)(F)F ? Thanks!
Result: 0.58

Task: Could you please provide reported activity coefficient for c1ccccc1 [benzene] + CCCCCCCCn1cc[n+](C)c1C.O=S(=O)([N-]S(=O)(=O)C(F)(F)F)C(F)(F)F ? Thanks!
Result: 0.59

Task: Could you please provide reported activity coefficient for CC1CCCCC1 [methylcyclohexane] + CCCCCCCCn1cc[n+](C)c1C.O=S(=O)([N-]S(=O)(=O)C(F)(F)F)C(F)(F)F ? Thanks!
Result: 3.32

Task: Could you please provide reported activity coefficient for CCc1ccccc1 [ethylbenzene] + CCCCCCCCn1cc[n+](C)c1C.O=S(=O)([N-]S(=O)(=O)C(F)(F)F)C(F)(F)F ? Thanks!
Result: 1.08

Task: Could you please provide reported activity coefficient for CCCCCCCCCC [decane] + CCCCCCCCn1cc[n+](C)c1C.O=S(=O)([N-]S(=O)(=O)C(F)(F)F)C(F)(F)F ? Thanks!
Result: 9.33

Task: Could you please provide reported activity coefficient for CC(C)CCO [3-methylbutan-1-ol] + CCCCCCCCn1cc[n+](C)c1C.O=S(=O)([N-]S(=O)(=O)C(F)(F)F)C(F)(F)F ? Thanks!
Result: 1.32
